Values were extracted from patent US11427548B2.

Recorded DC50 by entry
EXPERIMENTAL_SYSTEM: Androgen Receptor (Homo sapiens, UniProt P10275+P40337, T878A)
Construct: Compounds have been evaluated in this assay in LNCaP and/or VCaP cells utilizing similar protocols; endogenous in cells; host or cells: LNCaP cells
Sequence (P10275 whole entry T878A): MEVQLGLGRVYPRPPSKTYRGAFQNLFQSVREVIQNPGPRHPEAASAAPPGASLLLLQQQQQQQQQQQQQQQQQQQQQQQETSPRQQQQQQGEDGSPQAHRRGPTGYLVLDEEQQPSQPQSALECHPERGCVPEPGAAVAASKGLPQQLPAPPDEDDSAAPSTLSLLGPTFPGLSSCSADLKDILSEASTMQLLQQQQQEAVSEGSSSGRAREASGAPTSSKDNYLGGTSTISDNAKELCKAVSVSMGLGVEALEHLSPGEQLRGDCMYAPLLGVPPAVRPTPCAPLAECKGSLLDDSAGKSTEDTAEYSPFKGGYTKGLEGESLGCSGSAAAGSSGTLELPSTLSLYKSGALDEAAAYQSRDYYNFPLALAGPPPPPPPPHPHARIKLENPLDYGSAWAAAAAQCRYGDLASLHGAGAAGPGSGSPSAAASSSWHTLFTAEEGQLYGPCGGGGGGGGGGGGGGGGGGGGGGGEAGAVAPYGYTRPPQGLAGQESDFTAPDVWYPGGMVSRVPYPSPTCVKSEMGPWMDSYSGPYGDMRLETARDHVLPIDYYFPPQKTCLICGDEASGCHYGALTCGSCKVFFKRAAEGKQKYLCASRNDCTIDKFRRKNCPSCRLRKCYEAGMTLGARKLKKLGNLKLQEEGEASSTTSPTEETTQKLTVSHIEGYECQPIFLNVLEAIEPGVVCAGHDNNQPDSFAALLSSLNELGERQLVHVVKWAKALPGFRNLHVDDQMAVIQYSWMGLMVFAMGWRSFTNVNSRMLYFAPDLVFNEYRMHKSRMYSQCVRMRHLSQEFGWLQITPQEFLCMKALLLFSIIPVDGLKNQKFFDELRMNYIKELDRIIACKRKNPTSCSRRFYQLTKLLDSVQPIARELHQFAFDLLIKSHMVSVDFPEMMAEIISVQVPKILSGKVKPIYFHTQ
Sequence (P40337 whole entry): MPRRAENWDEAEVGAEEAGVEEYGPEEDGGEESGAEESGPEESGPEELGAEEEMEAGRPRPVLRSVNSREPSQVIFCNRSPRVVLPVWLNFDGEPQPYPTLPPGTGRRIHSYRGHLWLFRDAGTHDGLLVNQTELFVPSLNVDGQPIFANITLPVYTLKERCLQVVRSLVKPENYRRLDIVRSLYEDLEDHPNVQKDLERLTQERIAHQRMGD
Sequence (Q15369 whole entry partner): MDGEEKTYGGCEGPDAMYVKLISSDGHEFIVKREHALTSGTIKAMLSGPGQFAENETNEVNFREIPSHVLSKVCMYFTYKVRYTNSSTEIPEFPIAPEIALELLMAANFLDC
Sequence (Q15370 whole entry partner): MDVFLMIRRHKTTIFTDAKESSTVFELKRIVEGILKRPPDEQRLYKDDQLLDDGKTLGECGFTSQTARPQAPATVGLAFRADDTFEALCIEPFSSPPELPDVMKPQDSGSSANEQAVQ
ASSAY_SUMMARY: Androgen Receptor ELISA assay (PathScan AR ELISA) in LNCaP cells: AR degradation, Dmax and DC50
Format: cell-based
EXPERIMENTAL_SETUP: concentration that caused 50% Androgen Receptor degradation

- COMPOUND: "Cc1ncsc1-c1ccc(CNC(=O)[C@@H]2C[C@@H](O)CN2C(=O)[C@@H](NC(=O)c2ccc(OCCOCCOc3ccc(N4C(=S)N(c5ccc(C#N)c(C(F)(F)F)c5)C(=O)C4(C)C)cc3)cc2)C(C)(C)C)cc1 [Example 264]"
  DC50: "0.051 to 0.5 µM"
- COMPOUND: "Cc1ncsc1-c1ccc(CNC(=O)[C@@H]2C[C@@H](O)CN2C(=O)[C@@H](NC(=O)COCCCOCCCCOc2ccc(N3C(=S)N(c4ccc(C#N)c(C(F)(F)F)c4)C(=O)C3(C)C)cc2)C(C)(C)C)cc1 [Example 28]"
  DC50: "< 0.05 µM"
- COMPOUND: "Cc1ncsc1-c1ccc(CNC(=O)[C@@H]2C[C@@H](O)CN2C(=O)[C@H](C(C)C)N2Cc3ccccc3C2=O)c(OCCOc2ccc(N3C(=S)N(c4ccc(C#N)c(C(F)(F)F)c4)C(=O)C3(C)C)cc2)c1 [Example 261]"
  DC50: "0.051 to 0.5 µM"
- COMPOUND: "Cc1ncsc1-c1ccc(CNC(=O)[C@@H]2C[C@@H](O)CN2C(=O)[C@@H](NC(=O)COCCCOCCC(C)(C)CCOc2ccc(N3C(=S)N(c4ccc(C#N)c(C(F)(F)F)c4)C(=O)C3(C)C)cc2)C(C)(C)C)cc1 [Example 12]"
  DC50: "0.051 to 0.5 µM"
- COMPOUND: "Cc1ncsc1-c1ccc(CNC(=O)[C@@H]2C[C@@H](O)CN2C(=O)[C@@H](NC(=O)CCCOc2ccc(N3C(=S)N(c4ccc(C#N)c(C(F)(F)F)c4)C(=O)C3(C)C)cc2)C(C)(C)C)cc1 [Example 237]"
  DC50: "> 0.501 µM"
- COMPOUND: "Cc1ncsc1-c1ccc(CNC(=O)[C@@H]2C[C@@H](O)CN2C(=O)[C@@H](NC(=O)COCCCOCCCCCOc2ccc(N3C(=S)N(c4ccc([N+](=O)[O-])c(C(F)(F)F)c4)C(=O)C3(C)C)cc2)C(C)(C)C)cc1 [Example 5]"
  DC50: "0.051 to 0.5 µM"
- COMPOUND: "Cc1cc(N2C(=O)C(C)(C)N(c3ccc(OCCCCCOCCCOCC(=O)N[C@H](C(=O)N4C[C@H](O)C[C@H]4C(=O)NCc4ccc(-c5scnc5C)cc4)C(C)(C)C)cc3)C2=S)ccc1C#N [Example 6]"
  DC50: "< 0.05 µM"
- COMPOUND: "Cc1ncsc1-c1ccc(CNC(=O)[C@@H]2C[C@@H](O)CN2C(=O)[C@@H](NC(=O)CCCCCOCCCCOCCCCOc2ccc(N3C(=S)N(c4ccc(C#N)c(C(F)(F)F)c4)C(=O)C3(C)C)cc2)C(C)(C)C)cc1 [Example 227]"
  DC50: "< 0.05 µM"
- COMPOUND: "CC(=O)NCC(=O)N1C[C@H](O)C[C@H]1C(=O)NCc1ccc(-c2scnc2C)cc1OCCOCCOCCOc1ccc(N2C(=S)N(c3ccc(C#N)c(C(F)(F)F)c3)C(=O)C2(C)C)cc1 [Example 271]"
  DC50: "> 0.501 µM"
- COMPOUND: "Cc1ncsc1-c1ccc(CNC(=O)[C@@H]2C[C@@H](O)CN2C(=O)[C@H](C(C)C)N2Cc3ccccc3C2=O)c(OCCO[C@H](C)[C@@H](C)OCCOc2ccc(N3C(=S)N(c4ccc(C#N)c(C(F)(F)F)c4)C(=O)C3(C)C)cc2)c1 [Example 85]"
  DC50: "> 0.501 µM"
- COMPOUND: "Cc1ncsc1-c1ccc(CNC(=O)[C@@H]2C[C@@H](O)CN2C(=O)[C@@H](NC(=O)CCCOCCOCCCOc2ccc(N3C(=S)N(c4ccc(C#N)c(C(F)(F)F)c4)C(=O)C3(C)C)cc2)C(C)(C)C)cc1 [Example 300]"
  DC50: "< 0.05 µM"
- COMPOUND: "Cc1ncsc1-c1ccc(CNC(=O)[C@@H]2C[C@@H](O)CN2C(=O)[C@@H](NC(=O)COCCOCCOCCCOCCOCCOc2ccc(N3C(=S)N(c4ccc(C#N)c(C(F)(F)F)c4)C(=O)C3(C)C)cc2)C(C)(C)C)cc1 [Example 216]"
  DC50: "0.051 to 0.5 µM"
- COMPOUND: "Cc1ncsc1-c1ccc(CNC(=O)[C@@H]2C[C@@H](O)CN2C(=O)[C@@H](NC(=O)c2cccc(OCCOCCOc3ccc(N4C(=S)N(c5ccc(C#N)c(C(F)(F)F)c5)C(=O)C4(C)C)cc3)c2)C(C)(C)C)cc1 [Example 283]"
  DC50: "0.051 to 0.5 µM"
- COMPOUND: "Cc1ncsc1-c1ccc(CNC(=O)[C@@H]2C[C@@H](O)CN2C(=O)[C@@H](NC(=O)c2cccc(OCCCOc3ccc(N4C(=S)N(c5ccc(C#N)c(C(F)(F)F)c5)C(=O)C4(C)C)cc3)c2)C(C)(C)C)cc1 [Example 277]"
  DC50: "0.051 to 0.5 µM"
- COMPOUND: "Cc1ncsc1-c1ccc(CNC(=O)[C@@H]2C[C@@H](O)CN2C(=O)[C@@H](NC(=O)c2ccc(OCCCOc3ccc(N4C(=S)N(c5ccc(C#N)c(C(F)(F)F)c5)C(=O)C4(C)C)cc3)cc2)C(C)(C)C)cc1 [Example 265]"
  DC50: "0.051 to 0.5 µM"
- COMPOUND: "CC[C@H](NC(C)=O)C(=O)N1C[C@H](O)C[C@H]1C(=O)NCc1ccc(-c2scnc2C)cc1OCCOCCOCCOc1ccc(N2C(=S)N(c3ccc(C#N)c(C(F)(F)F)c3)C(=O)C2(C)C)cc1 [Example 280]"
  DC50: "> 0.501 µM"
- COMPOUND: "Cc1ncsc1-c1ccc(CNC(=O)[C@@H]2C[C@@H](O)CN2C(=O)[C@H](C(C)C)N2Cc3cccc(C#N)c3C2=O)c(OCCOCCOCCOc2ccc(N3C(=S)N(c4ccc(C#N)c(C(F)(F)F)c4)C(=O)C3(C)C)cc2)c1 [Example 84]"
  DC50: "0.051 to 0.5 µM"

###

Recorded Dmax by entry
EXPERIMENTAL_SYSTEM: Androgen Receptor (Homo sapiens)
Construct: endogenous in cells; host or cells: VCaP cells
ASSAY_SUMMARY: Androgen Receptor ELISA assay (PathScan AR ELISA) in VCaP cells: AR degradation, Dmax and DC50
Assay type: cell-based
EXPERIMENTAL_SETUP: VCaP, VCaP cells; Table 36; read-out: VCaP Dmax (%)

- COMPOUND: "Cc1ncsc1-c1ccc([C@H](C)NC(=O)C2C[C@@H](O)CN2C(=O)[C@@H](NC(=O)COCCN2[C@H](C)CN(c3ccc(C(=O)N[C@H]4C(C)(C)[C@H](Oc5ccc(C#N)c(Cl)c5)C4(C)C)cn3)C[C@@H]2C)C(C)(C)C)cc1 (stereo partly shown) [Example 786]"
  Dmax: "> 71%"
- COMPOUND: "Cc1ncsc1-c1ccc([C@H](C)NC(=O)[C@@H]2CC(O)CN2C(=O)[C@H](C(C)C)N2Cc3ccc(OCCN4CCN(c5ccc(C(=O)N[C@H]6C(C)(C)[C@H](Oc7ccc(C#N)c(Cl)c7)C6(C)C)cn5)CC4)cc3C2=O)cc1 (stereo partly shown) [Example 856]"
  Dmax: "< 25%"
- COMPOUND: "Cc1ncsc1-c1ccc([C@H](C)NC(=O)[C@@H]2C[C@@H](O)CN2C(=O)[C@H](NC(=O)CN2CCN(CCCc3ccc(C(=O)N[C@H]4C(C)(C)[C@H](Oc5ccc(C#N)c(Cl)c5)C4(C)C)cc3)CC2)C2COC2)cc1 [Example 750]"
  Dmax: "< 25%"
- COMPOUND: "Cc1ncsc1-c1ccc([C@H](C)NC(=O)C2C[C@@H](O)CN2C(=O)C(NC(=O)CN2CCC(CCN3CCN(c4ccc(C(=O)NC5C(C)(C)C(Oc6ccc(C#N)c(Cl)c6)C5(C)C)cn4)CC3)CC2)C(C)(C)C)cc1 (stereo partly shown) [Example 827]"
  Dmax: "> 71%"
- COMPOUND: "Cc1ncsc1-c1ccc(CNC(=O)[C@@H]2C[C@@H](O)CN2C(=O)[C@H](C(C)C)N2Cc3ccccc3C2=O)c(OCCN2CCN(c3ccc(C(=O)N[C@H]4C(C)(C)[C@H](Oc5ccc(C#N)c(Cl)c5)C4(C)C)cn3)CC2)c1 [Example 732]"
  Dmax: "> 71%"
- COMPOUND: "Cc1ncsc1-c1ccc([C@H](CO)NC(=O)[C@@H]2C[C@@H](O)CN2C(=O)[C@@H](NC(=O)COCCN2CCN(c3ccc(C(=O)N[C@H]4C(C)(C)[C@H](Oc5ccc(C#N)c(Cl)c5)C4(C)C)cn3)CC2)C(C)(C)C)cc1 [Example 812]"
  Dmax: "> 71%"
- COMPOUND: "Cc1ncsc1-c1ccc([C@H](C)NC(=O)[C@@H]2C[C@@H](O)CN2C(=O)C(NC(=O)CO[C@@H]2CCCC[C@H]2N2CCN(CCOc3ccc(C(=O)N[C@H]4C(C)(C)[C@H](Oc5ccc(C#N)c(Cl)c5)C4(C)C)cc3)CC2)C(C)(C)C)cc1 (stereo partly shown) [Example 792]"
  Dmax: "26 to 50%"
- COMPOUND: "Cc1ncsc1-c1ccc([C@H](C)NC(=O)C2C[C@@H](O)CN2C(=O)C(NC(=O)CN2CCN(CCN3CCN(c4ccc(C(=O)NC5C(C)(C)C(Oc6ccc(C#N)c(Cl)c6)C5(C)C)cn4)C[C@H]3CO)CC2)C(C)(C)C)cc1 (stereo partly shown) [Example 843]"
  Dmax: "51 to 70%"
- COMPOUND: "Cc1ncsc1-c1ccc([C@H](C)NC(=O)[C@@H]2C[C@@H](O)CN2C(=O)[C@@H](NC(=O)CCCCCCCCc2ccc(C(=O)N[C@H]3C(C)(C)[C@H](Oc4ccc(C#N)c(Cl)c4)C3(C)C)cc2)C(C)(C)C)cc1 [Example 756]"
  Dmax: "51 to 70%"
- COMPOUND: "Cc1ncsc1-c1ccc([C@H](C)NC(=O)[C@@H]2CCCN2C(=O)[C@@H](NC(=O)CN2CCN(CCCc3ccc(C(=O)N[C@H]4C(C)(C)[C@H](Oc5ccc(C#N)c(C(F)(F)F)c5)C4(C)C)cc3)CC2)C(C)(C)C)cc1 [Example 724]"
  Dmax: "< 25%"
- COMPOUND: "CC(C)[C@@H](C(=O)N1C[C@H](O)C[C@H]1C(=O)NCc1ccc(Cl)cc1N1CCN(CCCc2ccc(C(=O)N[C@H]3C(C)(C)[C@H](Oc4ccc(C#N)c(Cl)c4)C3(C)C)cc2)CC1)N1Cc2ccccc2C1=O [Example 754]"
  Dmax: "< 25%"
- COMPOUND: "Cc1ncsc1-c1ccc([C@H](C)NC(=O)[C@@H]2CC(O)CN2C(=O)[C@H](C(C)C)n2nccc2OCCCCCNc2ccc(C(=O)N[C@H]3C(C)(C)[C@H](Oc4ccc(C#N)c(Cl)c4)C3(C)C)cc2)cc1 (stereo partly shown) [Example 624]"
  Dmax: "< 25%"
- COMPOUND: "CC(C)[C@@H](C(=O)N1C[C@H](O)C[C@H]1C(=O)NCc1ccc(Cl)cc1)N1Cc2ccc(N3CCN(CCCc4ccc(C(=O)N[C@H]5C(C)(C)[C@H](Oc6ccc(C#N)c(C(F)(F)F)c6)C5(C)C)cc4)CC3)cc2C1=O [Example 770]"
  Dmax: "< 25%"
- COMPOUND: "Cc1ncsc1-c1ccc([C@H](C)NC(=O)C2C[C@@H](O)CN2C(=O)[C@@H](NC(=O)CCCCCCc2ccc(C(=O)N[C@H]3C(C)(C)[C@H](Oc4ccc(C#N)c(Cl)c4)C3(C)C)cc2)C(C)(C)C)cc1 (stereo partly shown) [Example 749]"
  Dmax: "> 71%"
- COMPOUND: "Cc1ncsc1-c1ccc([C@H](C)NC(=O)[C@@H]2C[C@@H](O)CN2C(=O)C(NC(=O)CCCCCc2ccc(C(=O)N[C@H]3C(C)(C)[C@H](Oc4ccc(C#N)c(Cl)c4)C3(C)C)cc2)C(C)(C)C)cc1 (stereo partly shown) [Example 748]"
  Dmax: "26 to 50%"
- COMPOUND: "Cc1ncsc1-c1ccc([C@H](C)NC(=O)[C@@H]2C[C@@H](O)CN2C(=O)[C@@H](NC(=O)CCCc2ccc(C(=O)N[C@H]3C(C)(C)[C@H](Oc4ccc(C#N)c(Cl)c4)C3(C)C)cc2)C(C)(C)C)cc1 [Example 747]"
  Dmax: "< 25%"
